assay: qHTS for inhibitors of binding or entry into cells for Marburg Virus; conditions: Marburg virus pseudotyped entry inhibition, cell reporter; series mostly up to 37.8 µM
Among all 300,000 compounds or so, about 5,400 (1.8%) were called active. About 28% were inconclusive and are not listed. Calls come from the whole dose curve; tested in HEK293 cells. This is one part of a sample in which actives are shown more often than they occur.
Reply using exactly one outcome from active, inactive

See these solved cases before continuing.
1. O=C(COC(=O)COc1ccccc1F)Nc1cccc(S(=O)(=O)N2CCCCC2)c1 :: inactive
2. Cc1cc(O)c(Sc2ccccc2)c(=O)o1 :: inactive
3. CCOC(=O)C1(Cc2ccccc2C)CCCN(C(=O)c2ccc(COC)o2)C1 (stereo not drawn) :: inactive

Recorded test call requested for "O=C(COc1ccccc1F)NNC(=O)c1ccc(N2CCCCC2)c([N+](=O)[O-])c1"
inactive

In this assay, the call recorded for "COc1ccc(/C=C/C(=O)Nc2ccc(C34CC5CC(CC(O)(C5)C3)C4)cc2)cc1OC" was what?
active

Hi team, can someone confirm the assay call for COCCOC(=O)C1=C(C)NC(=O)CC1c1cc2c(cc1Br)OCO2 (stereo not drawn) ?
inactive

Check the results log: what was the call for "COc1cc(SC)ccc1C(=O)Nc1cc(C)ccn1" ?
active

For "O=C1NCC(c2ccccc2)(c2ccccc2)C(=O)N1" , what call appears in the results of this test?
inactive

Please share the test call associated with "COCCn1c(C)cc(C(=O)CSc2nnc(C3CC3)n2C2CC2)c1C" .
inactive

How was COC(=O)C1(O)CC(C(C)C)=NN1C(=O)c1ccc(Cl)cc1 (stereo not drawn) classified in this test?
inactive

Please state the recorded outcome for this molecule: O=C(c1ccc(Cl)cc1)N1N=C(c2ccccn2)CC1(O)C(F)(F)F (stereo not drawn)
active

// return assay outcome for "Cc1cccc(NC(=O)/C=C/c2ccc3c(c2)OCO3)n1"
active

Write down the call the test reported for this molecule. Item: "CN(Cc1ccccc1)C(=O)COC(=O)/C=C/c1ccc2c(c1)OCO2"
inactive

Answer briefly: the call reported for "COCCN(CCOC)C(=S)Nc1ccccc1Cl" in this assay.
inactive

###

assay: qHTS for inhibitors of binding or entry into cells for Marburg Virus; conditions: Marburg virus pseudotyped entry inhibition, cell reporter; series mostly up to 37.8 µM
Hit rate of the full screen: of about 300,000 compounds, about 5,400 (1.8%) were called active. Another 28% or so got no clear call; they are omitted. Calls follow the shape of the full dose curve; tested in HEK293 cells. Only a selection was taken, and actives are over-represented in it overall.
Returns: one label drawn from True for active, False for inactive

Dear colleague, could you share the recorded outcome for "CN(C)c1ccc(CSc2ccccc2)cc1" when you have a moment?
False

###

assay: qHTS for inhibitors of binding or entry into cells for Marburg Virus; conditions: Marburg virus pseudotyped entry inhibition, cell reporter; series mostly up to 37.8 µM
Out of some 300,000 compounds screened, about 5,400 (1.8%) were called active. Another 28% or so got no clear call; they are omitted. Calls come from the whole dose curve; tested in HEK293 cells. Shown is part of a subset that was picked to be rich in actives.
Output constraint: value belongs to yes (1) = active, no (0) = inactive

# example entries with known answers
1. O=C(NNS(=O)(=O)c1ccc(F)cc1)c1ccc([N+](=O)[O-])cc1Cl :: no (0)
2. CC(C)Oc1ccc(Oc2ccc(C(F)(F)F)cn2)cc1 :: no (0)
3. S=c1[nH]nc(-c2ccco2)n1/N=C/c1ccccc1 :: no (0)
4. COC(CNC(=O)c1ccc2c(c1)ncn2-c1cc(C)cc(C)c1)OC :: no (0)
5. Cc1ccc(C)c(NC(=O)COC(=O)c2nn(C)c(=O)c3ccccc23)c1 :: no (0)
6. COc1cc(/C=N/Nc2nc3ccccc3s2)ccc1O :: yes (1)
7. Cn1c(N)cc(=O)n(C)c1=S :: no (0)
8. CC(NC(=O)Cn1cc(C(F)(F)F)cc(Cl)c1=O)c1ccccc1 (configuration not stated) :: no (0)

Could you check what this test reported for "COC(=O)CC(CC(=O)OC)n1cccc1" ?
no (0)

Which outcome was entered for the compound "Cc1ccc(S(=O)(=O)Nc2ccc(F)c(S(=O)(=O)N3CCOCC3)c2)cc1" in this test?
no (0)

What outcome does the record of this test show for "O=C1CCCCC(=O)c2ccccc2N1" ?
no (0)

Could you kindly confirm the outcome this assay logged for "COc1cc(/C=N\Nc2nc(-c3cccs3)c(NC(C)=O)s2)ccc1O" ?
no (0)

The origin of these recorded values is PubChem BioAssay AID540276.
